Test system: RARb homodimer (NR concentration 270 nM)
Experiment: PBM binding z-score (relative to random genomic background probes); higher = stronger binding; sequences stand for … in GC…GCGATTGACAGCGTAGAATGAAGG
I'd appreciate it if you could supply PBM binding z-score values for the items below.
Lab note: record just the number, no unit beside it.

Bench note: what PBM binding z-score did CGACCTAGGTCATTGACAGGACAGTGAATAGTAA show?
3.01

Quick one: PBM binding z-score of ATACCAAGGTGATCGTGAGGACGTTGATACTAAC ?
0.51

Form field: reported PBM binding z-score of TCTCGGAGGACACGAAAGGTCAAAGCTCGACATC
5.19

Suppose we examine the sequence ACTAGCAGGCCAAGTTTGGGTCTCTCAAACAAAG ; what PBM binding z-score value has been reported?
0.00651

What does the data say about its PBM binding z-score? Entry: CGTCAAAGTTCAACTAAGGTAACGTAAAGCACGC
4.51

Using the record for ACTAGTTGGTCAGCTGAGGGCACACACAATTCGG , report its PBM binding z-score.
2.11

Look at this sequence and give its reported PBM binding z-score. TCCTATAGGTAAAAGGTGAAAGTCGGTGTGGTAA
1.55

Entry TCATATAGGTAAACACGTGAAAGTCCGTAAGTTA has what PBM binding z-score?
0.112

Form field: reported PBM binding z-score of CCTATTGGGCCAAGGTCATTGATCAGTCAAAGCA
3.15

###

Tested on: THRa homodimer (NR concentration 90 nM)
Experiment: PBM binding z-score (relative to random genomic background probes); higher = stronger binding; sequences stand for … in GC…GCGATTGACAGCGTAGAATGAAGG
Classes based on PBM binding z-score: low-valued: < -0.2; mid-valued: ≥ -0.2 and < 0.8; high-valued: ≥ 0.8

Band for the recorded PBM binding z-score of ACTCGGAGGACAACGGTCAGAGCTACGCCAGTGA ?
mid-valued

Kindly state the category for this sequence: ATCTCTAGGCAAAGATAGTTCAGTGAATGCAAAT
low-valued

Quick check: band for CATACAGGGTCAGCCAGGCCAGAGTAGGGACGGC
high-valued

Lab note: which band did GGTCGGAGGACAAGGTCAGAGCTTTGTCCGTAGA land in?
high-valued

Class (by measured PBM binding z-score) for ATCTCTAGGTAAAACTTCAGTGAATCCCGAGGAT
low-valued

For this sequence, which bin applies? CCTGACGGGTCACTGACAGGTTATAGCATTTGGA
mid-valued

Class for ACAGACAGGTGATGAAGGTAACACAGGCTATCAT ?
mid-valued

State the class of the sequence shown: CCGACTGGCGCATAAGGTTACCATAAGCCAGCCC
high-valued

GET /class?item= GGAACGCGGGCAAGTTGATAGCAGAGTTTGATGG
low-valued

###

System: PPARg:RXRa IVT, anti-PPARg (NR concentration 270 nM, RXRa partner concentration 90 nM)
Assay: PBM binding z-score (relative to random genomic background probes); higher = stronger binding; sequences stand for … in GC…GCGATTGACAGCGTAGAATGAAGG
Classify as follows. Reported PBM binding z-score greater than or equal to 2: yes. Reported PBM binding z-score below: no.

Identify whether the reported PBM binding z-score of the following sequence is 2 or greater: ATCGAGAGGTCGACGAGGTGAGTATACACCGTTT
no

Does CCGAGTAAGTTATGGGGCATTCAGGCAACGGTGA have a reported PBM binding z-score of at least 2?
no

Dear colleague, could you confirm whether CTCGAAAGGTCGGTTGAGGTGAGTATGCGGATAA has PBM binding z-score at or above 2?
no

Please indicate if the recorded PBM binding z-score for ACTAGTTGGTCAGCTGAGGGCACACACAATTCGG meets or exceeds 2.
no

PBM binding z-score >= 2 for CCAGACATGTGAGAAGGTAACTCAGCCTCGATTA ?
no

Item TTCCCAAGGTGAGCTGAGGTCGTTGATCCAACTC with PBM binding z-score of 2 or above?
no

Test whether the sequence ACTAGCAGGCCAGGGGTCACTCAAGATTAGTCCG records PBM binding z-score of 2 or higher.
yes

Is PBM binding z-score for ATCACTAGGTAACAAGTTCAGTGAAAGAGAGGAC at or above 2?
yes

Dear colleague, could you confirm whether ACAGAGAGGTGAGTGAAGGTAACTCAGCTGGACG has PBM binding z-score at or above 2?
no

Form field: PBM binding z-score at least 2? Entry: CCTAGTTGCTCAGGAGGTCACACACCGGATATGA
yes

Assess whether reported PBM binding z-score for GCTAGATGGTCAGTAAAAGGTCACACACCGGTCG sits at 2 or higher.
yes

Form field: PBM binding z-score at least 2? Entry: TCAATGAGGTTATAAGATCAGGGAACGTTGCAAA
no

Confirm if PBM binding z-score reported for the sequence TCGAGTAGGTAACCAATGGGGCATTCAGCTTTCT is 2 or above.
no

Decide: PBM binding z-score of AATACATGGTCATCGTAGGCCAGAGTACGCACAG >= 2?
no

Item GCGACTGGGGCATCAGCAGGTCACCATAACTTAA with PBM binding z-score of 2 or above?
yes

Evaluate TCATATAGGTAAATGCTGGGTGAAAGTCCGATCT : PBM binding z-score at minimum 2?
yes

Quick check: does GCGACTGGGGCATCAGAAGGTTACCATAACTTAA have PBM binding z-score greater than or equal to 2?
yes

Given CGTCCAAGGTCAGAGCGGTCAGTGAATGCCGAGT , state whether its PBM binding z-score is at least 2.
yes

Record GTACCAAGTTGAATAGGTCGTTGATGAGTAGGCG ; criterion: PBM binding z-score no lower than 2. Met?
no

Is reported PBM binding z-score greater than or equal to 2 here: GCGACTGGCGCATCAGCAGGTTACCATAACTTAA
no

Form field: PBM binding z-score at least 2? Entry: AGAACGAGGACACGCTGAGTTGATAGCAGAGTAG
no

Decide: is the reported value of PBM binding z-score for GCAGACAGGTGGAACGCAGGTAACTCAGGGTGGC equal to or greater than 2?
no

Quick check, PBM binding z-score >= 2? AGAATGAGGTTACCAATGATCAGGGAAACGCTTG
yes
